Here the recorded Percent Control is given for each entry.
system: ULK1; details: Compound Concentration (nM):1000;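 note: KINOMEscan scanMAX binding as percent activity remaining versus control; lower means stronger binding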

Compound | Quantity unit | Percent Control
COc1cccc(-c2c[nH]c3c(N/N=C/c4ccncc4)ncnc23)c1 [GW814408X] | % | 100
NS(=O)(=O)c1ccc(N/N=C2\C(=O)Nc3ccc(C(=O)NCc4ccncc4)cc32)cc1 [GW300657X] | % | 15
NS(=O)(=O)c1ccc(N/N=C2\C(=O)Nc3ccc(C(=O)NCCc4c[nH]cn4)cc32)cc1 [GW300660X] | % | 38
COc1cc(C=NNc2ncnc3c2cnn3-c2ccccc2)ccc1O [GW513184X] | % | 100
Cl.O=C(Nc1ccc(Oc2ccc3[nH]c(NC(=O)c4ccco4)nc3c2)cc1)Nc1cc(C(F)(F)F)ccc1F [GW683134A] | % | 100
NS(=O)(=O)c1ccc(N/N=C2\C(=O)Nc3ccc(-c4cnco4)cc32)cc1 | % | 84
COc1cc(N2CCN(C(C)C)CC2)ccc1Nc1nc(Nc2ccc(F)cc2C(=O)NC[C@@H](O)CO)c2cc[nH]c2n1 [GSK1392956A] | % | 65
CC(C)COC(=O)c1ccc2c(c1)/C(=C/Nc1ccc(S(N)(=O)=O)cc1)C(=O)N2 [GW416981X] | % | 0.1
NS(=O)(=O)c1ccc(Nc2ncc(-c3ccccc3)o2)cc1 [GW572399X] | % | 100
COc1ccc(COc2ccc(Cc3cnc(N)nc3N)cc2OC)cc1 [GW632580X] | % | 90
CN1CCN(C(=O)c2ccc(NC(=O)Nc3ccc(N(C)c4ccnc(Nc5ccc(CS(C)(=O)=O)cc5)n4)cc3)cc2)CC1.Cl [GW830263A] | % | 79
COc1ccccc1-c1cc(/C=C2\C(=O)Nc3ncc(Br)cc32)cc(Br)c1O [GW442130X] | % | 85
